Listed below: inhibition values for each entry.
molecular target: Dual specificity mitogen-activated protein kinase kinase 1 (Homo sapiens); conditions: at 1 µM;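 note: values reported are mean inhibition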
OBSERVED PROPERTY: inhibition (%)

mol_smiles=NC(=O)c1ccc2c(-c3ccnc(NCCCO)n3)c(-c3ccc(F)cc3)nn2c1 observed_property=inhibition units_of_measure=% recorded_number=13.2
mol_smiles=Cc1c2ccc(N(C)c3ccnc(Nc4cccc(S(N)(=O)=O)c4)n3)cc2nn1C observed_property=inhibition units_of_measure=% recorded_number=10.7
mol_smiles=CN(C)CCNC(=O)Nc1ccc(N(C)c2ccnc(Nc3ccc(CS(C)(=O)=O)cc3)n2)cc1 observed_property=inhibition units_of_measure=% recorded_number=4.12
mol_smiles=c1cnn2ncc(-c3ccnc(NCCCN4CCOCC4)n3)c2c1 observed_property=inhibition units_of_measure=% recorded_number=3.9
mol_smiles=COc1c(C(N)=O)cc(-c2ccc(Cl)cc2)cc1-c1ccc(S(N)(=O)=O)cc1 observed_property=inhibition units_of_measure=% recorded_number=3.65
mol_smiles=NS(=O)(=O)c1ccc(N/N=C2\C(=O)Nc3cccc(CCc4ccncc4)c32)cc1 observed_property=inhibition units_of_measure=% recorded_number=3.3
mol_smiles=CCOc1ccc2c(-c3ccnc(Nc4cc(OC)cc(C(F)(F)F)c4)n3)cnn2n1 observed_property=inhibition units_of_measure=% recorded_number=0.8
mol_smiles=CS(=O)(=O)Nc1ccc(-c2ccc3c(NC(=O)C4CC4)n[nH]c3c2)cc1 observed_property=inhibition units_of_measure=% recorded_number=2.95
mol_smiles=O=C1Nc2ccccc2/C1=C1\CCc2cc(O)ccc21 observed_property=inhibition units_of_measure=% recorded_number=9.97
mol_smiles=CN(c1ccc(NC(=O)NCCN2CCOCC2)cc1)c1ccnc(Nc2ccc(CS(C)(=O)=O)cc2)n1 observed_property=inhibition units_of_measure=% recorded_number=7.12

* * *

Reported inhibition values for a set of compounds
target: Vascular endothelial growth factor receptor 3 (Homo sapiens); conditions: at 0.1 µM
Description: GSK_PKIS: FLT4 mean inhibition at 0.1 uM [Nanosyn]
OBSERVED PROPERTY: inhibition

mol_smiles=COc1ccc(Nc2ncc(-c3ccccc3)o2)cc1OC result=5.08%
mol_smiles=Cc1cc(O)cc(C)c1/C=C/c1cncc(C(=O)OC(C)(C)C)c1 result=1.44%
mol_smiles=N#Cc1cccc(Nc2ncc(-c3ccccc3)o2)c1 result=-0.11%
mol_smiles=c1cnn2ncc(-c3ccnc(NCCCN4CCOCC4)n3)c2c1 result=0.01%
mol_smiles=N#Cc1ccc2c(-c3ccnc(NC4CC4)n3)c(-c3ccc(F)cc3)nn2c1 result=-1.37%
mol_smiles=CCn1c(-c2nonc2N)nc2cncc(C(=O)NCCNC)c21 result=1.03%
mol_smiles=O=C(O[C@H]1CN[C@H](C#Cc2cc3ncnc(Nc4ccc5c(cnn5Cc5ccccc5)c4)c3s2)C1)N1CCOCC1 result=1.1%
mol_smiles=CC1(C)CC(n2cnc(-c3ccc(F)cc3)c2-c2ccnc(N)n2)CC(C)(C)N1 result=3.06%
mol_smiles=OCCCNc1nccc(-c2c(-c3ccc(F)cc3)nn3cc(C(F)(F)F)ccc23)n1 result=-2.7%
mol_smiles=COc1cc2c(cc1Nc1nc(Nc3cccc(F)c3C(N)=O)c3cc[nH]c3n1)N(C(=O)CN1CCN(C(C)C)CC1)CC2 result=-0.29%
mol_smiles=COc1cc(Nc2ncc(-c3ccccc3)o2)cc(OC)c1 result=1.25%
mol_smiles=FC(F)(F)CNc1nccc(-c2cnn3ncccc23)n1 result=2.05%
mol_smiles=CCS(=O)(=O)c1ccc(OC)c(Nc2ncc(-c3cccc(F)c3)o2)c1 result=36.4%
mol_smiles=CN(C)CCNC(=O)Nc1ccc(N(C)c2ccnc(Nc3ccc(CS(C)(=O)=O)cc3)n2)cc1 result=2.39%
mol_smiles=CNC(=O)c1ncccc1Nc1nc(Nc2cc3c(cc2OC)CCCN3C(=O)CN(C)C)nc2[nH]ccc12 result=2.84%
mol_smiles=COc1cccc(Nc2nccc(-c3cnn4ncccc34)n2)c1 result=-0.16%
mol_smiles=Fc1cccc(COc2ccc(Nc3ncncc3C#Cc3ccccc3)cc2Cl)c1 result=4.04%
mol_smiles=COc1cccc(-n2ncc3c(N/N=C/c4ccc(C(=O)NCCN(C)C)cc4)ncnc32)c1 result=12.1%
mol_smiles=NS(=O)(=O)c1ccc(N/N=C2\C(=O)Nc3ccc(C(=O)NCc4ccncc4)cc32)cc1 result=16.7%
mol_smiles=Cc1cc(O)cc(C)c1/C=C/c1cncc(C(N)=O)c1 result=1.77%
mol_smiles=COc1ccccc1-c1cc(/C=C2\C(=O)Nc3ncc(Br)cc32)cc(Br)c1O result=1.8%
